Biological target: T1, CNTFRα-myc (soluble extracellular domain of the CNTFRα receptor) (UniProt P26992 23-342)
T1 construct: extracellular domain; Captured on plates or protein A-Sepharose through the anti-myc antibody 9E10; also called CNTF receptor α; soluble CNTFRα receptor
T1 sequence (looked up): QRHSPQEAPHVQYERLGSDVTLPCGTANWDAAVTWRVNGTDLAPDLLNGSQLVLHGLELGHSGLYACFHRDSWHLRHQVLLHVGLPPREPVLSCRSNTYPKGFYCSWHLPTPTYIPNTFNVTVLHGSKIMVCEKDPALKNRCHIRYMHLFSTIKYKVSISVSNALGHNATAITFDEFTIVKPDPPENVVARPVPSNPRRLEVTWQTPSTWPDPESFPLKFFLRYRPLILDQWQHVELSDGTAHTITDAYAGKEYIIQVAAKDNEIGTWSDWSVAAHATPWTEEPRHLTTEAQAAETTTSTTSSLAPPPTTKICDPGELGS
Test: solid-phase competition with biotinylated CNTF or biotinylated MUT-DH for immobilised CNTFRα-myc, soluble gp130 present
Method: The ability of CNTF variants to compete with biotinylated CNTF ([…]) for binding to the extracellular domain of the CNTFRα receptor was determined in a solid-phase binding assay, in the presence of soluble gp130, as described in preceding publications (19). […] The alkaline phosphatase activity was determined at 37° C. using 1 mg/ml p-nitrophenyl phosphate in 1 M of diethanolamine-HCl, pH 9.8, and absorbancy at 405 nm was measured after 40–60 minutes using a suitable reader. […]
Documented Relative Binding ((IC50 of CNTF)/(IC50 of tested protein)) across a set of binders
State just the number; it will be interpreted in ratio.

{"binder": "Lys155Ala/MUT-DH (ligand, human, UniProt P26441 1-200, looked up, also called FADH-CNTF; FA/DH) MAFTEHSPLTPHRRDLCSRSIWLARKIRSDLTALTESYVKHQGLNKNINLDSADGMPVASTDQWSELTEAERLQENLQAYRTFHVLLARLLEDQQVHFTPTEGDFHQAIHTLLLQVAAFAYQIEELMILLEYKIPRNEADGMPINVGDGGLFEKALWGLKVLQELDHWTVRSIHDLRFISSHQTGIPARGSHYIANNKKM", "result value": 42}
{"binder": "Lys155Ala/CNTF (ligand, human, UniProt P26441 1-200, looked up, also called FA-CNTF) MAFTEHSPLTPHRRDLCSRSIWLARKIRSDLTALTESYVKHQGLNKNINLDSADGMPVASTDQWSELTEAERLQENLQAYRTFHVLLARLLEDQQVHFTPTEGDFHQAIHTLLLQVAAFAYQIEELMILLEYKIPRNEADGMPINVGDGGLFEKALWGLKVLQELSQWTVRSIHDLRFISSHQTGIPARGSHYIANNKKM", "result value": 1}

// switching to the query binder
Enquiry: Query (binder): Phe152Ala/Lys155Ala/hCNTF (ligand, human, UniProt P26441 1-200, looked up, also called Phe152Ala/Lys155Ala/CNTF; AA-CNTF) MAFTEHSPLTPHRRDLCSRSIWLARKIRSDLTALTESYVKHQGLNKNINLDSADGMPVASTDQWSELTEAERLQENLQAYRTFHVLLARLLEDQQVHFTPTEGDFHQAIHTLLLQVAAFAYQIEELMILLEYKIPRNEADGMPINVGDGGLAEKALWGLKVLQELSQWTVRSIHDLRFISSHQTGIPARGSHYIANNKKM ; field requested: Relative Binding ((IC50 of CNTF)/(IC50 of tested protein))
Return: 0.9
